ASSAY SUMMARY: Binding affinity to DPC micelle assessed as blue shift with maximum fluorescence emission at 1 uM in TRIS buffer at pH 7.4 measured after 24 hrs by Trp emission fluorescence spectroscopy
Active and inactive are the calls of the source. The calls are words filed in the database; no cut-off is given here. Non-standard residues stand in square brackets, D forms with d. Residues, ends and D or L forms follow the SMILES beside them. Orn = NCCC[C@H](N)C(=O)O; Dap = NC[C@H](N)C(=O)O
READOUT LABEL: Activity

compound="CC[C@H](C)[C@H](NC(=O)[C@H](CN)NC(=O)[C@@H](NC(=O)[C@H](C)NC(=O)[C@@H](NC(=O)[C@@H](NC(=O)[C@H](CC(C)C)NC(=O)[C@H](CN)NC(=O)[C@@H](N)C(C)C)[C@@H](C)CC)C(C)C)C(C)C)C(=O)N[C@@H](Cc1c[nH]c2ccccc12)C(=O)N[C@@H](CN)C(=O)N[C@@H](CN)C(N)=O (H-V[Dap]LIVAV[Dap]IW[Dap][Dap]-NH2)" readout_label=Activity result_value=Active
compound="CC[C@H](C)[C@H](NC(=O)[C@H](CCCN)NC(=O)[C@@H](NC(=O)[C@H](C)NC(=O)[C@@H](NC(=O)[C@@H](NC(=O)[C@H](CC(C)C)NC(=O)[C@H](CCCN)NC(=O)[C@@H](N)C(C)C)[C@@H](C)CC)C(C)C)C(C)C)C(=O)N[C@@H](Cc1c[nH]c2ccccc12)C(=O)N[C@@H](CCCN)C(=O)N[C@@H](CCCN)C(N)=O (H-V[Orn]LIVAV[Orn]IW[Orn][Orn]-NH2)" readout_label=Activity result_value=Active
compound="CC[C@H](C)[C@H](NC(=O)[C@H](CN)NC(=O)[C@@H](NC(=O)[C@H](CN)NC(=O)[C@@H](NC(=O)[C@@H](NC(=O)[C@H](CC(C)C)NC(=O)[C@H](CN)NC(=O)[C@@H](N)C(C)C)[C@@H](C)CC)C(C)C)C(C)C)C(=O)N[C@@H](Cc1c[nH]c2ccccc12)C(=O)N[C@@H](CN)C(=O)N[C@@H](CN)C(N)=O (H-V[Dap]LIV[Dap]V[Dap]IW[Dap][Dap]-NH2)" readout_label=Activity result_value=Active
compound="CC[C@H](C)[C@H](NC(=O)[C@H](CCCN)NC(=O)[C@@H](NC(=O)[C@H](CCCN)NC(=O)[C@@H](NC(=O)[C@@H](NC(=O)[C@H](CC(C)C)NC(=O)[C@H](CCCN)NC(=O)[C@@H](N)C(C)C)[C@@H](C)CC)C(C)C)C(C)C)C(=O)N[C@@H](Cc1c[nH]c2ccccc12)C(=O)N[C@@H](CCCN)C(=O)N[C@@H](CCCN)C(N)=O (H-V[Orn]LIV[Orn]V[Orn]IW[Orn][Orn]-NH2)" readout_label=Activity result_value=Active

----------
Test system: Staphylococcus aureus
ASSAY SUMMARY: Antibiofilm activity against methicillin-resistant Staphylococcus aureus assessed as inhibition of biofilm formation incubated for overnight by crystal violet staining based microtiter plate assay
Assay type: functional, organism-based
Non-standard residues stand in square brackets, D forms with d. Residues, ends and D or L forms follow the SMILES beside them. hArg = N=C(N)NCCCC[C@H](N)C(=O)O; Dab = NCC[C@H](N)C(=O)O
READOUT LABEL: inhibition

compound="CC[C@H](C)[C@H](NC(=O)[C@H](CCCNC(=N)N)NC(=O)[C@@H](NC(=O)[C@H](C)NC(=O)[C@@H](NC(=O)[C@@H](NC(=O)[C@H](CC(C)C)NC(=O)[C@H](CCCNC(=N)N)NC(=O)[C@@H](N)C(C)C)[C@@H](C)CC)C(C)C)C(C)C)C(=O)N[C@@H](Cc1c[nH]c2ccccc12)C(=O)N[C@@H](CCCCNC(=N)N)C(=O)N[C@@H](CCCNC(=N)N)C(N)=O (H-VRLIVAVRIW[hArg]R-NH2)" readout_label=inhibition result_value="Dose-dependent effect"
compound="CC[C@H](C)[C@H](NC(=O)[C@H](CCCNC(=N)N)NC(=O)[C@@H](NC(=O)[C@H](C)NC(=O)[C@@H](NC(=O)[C@H](CCN)NC(=O)[C@H](CC(C)C)NC(=O)[C@H](CCCNC(=N)N)NC(=O)[C@@H](N)C(C)C)C(C)C)C(C)C)C(=O)N[C@@H](Cc1c[nH]c2ccccc12)C(=O)N[C@@H](CCCNC(=N)N)C(=O)N[C@@H](CCCNC(=N)N)C(N)=O (H-VRL[Dab]VAVRIWRR-NH2)" readout_label=inhibition result_value="Dose-dependent effect"
